The reported numbers originate from paper PMC5540273.

System: CSNK1G2
applied conditions: concentration: 1 μM,replicates: in singlicate; n = 1;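 further: KINOMEscan kinase panel screen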
observable: %Inh (%)
Give bare numbers, in %.

{"columns": ["compound", "test target", "unit abbreviation", "%Inh"],
 "data": [
  ["O=C1NCCc2[nH]c(-c3ccncc3)cc21", "CSNK1G2", "%", 93.7]
]}

Parameters: items (list). Returns: %Inh for each item.
1. COc1cccc(CNC(=O)NC2CCN(c3ccnc(Nc4cc(OC)c(OC)c(OC)c4)n3)C2)c1 (centres unmarked)
2. CC(C(=O)NC1CCN(c2ccnc(Nc3ccc(F)cc3)n2)C1)c1ccc(Cl)cc1 (centres unmarked)
3. Cn1cc(-c2cccc3c(N)c(C(N)=O)nnc23)cn1
4. COc1cc2nccc(Nc3ccc(Oc4ccccc4)cc3)c2cc1OC.Cl
5. CS(=O)c1ccc(-c2coc3ccc(-c4n[nH]c(=O)o4)cc23)cc1 (centres unmarked)
6. O=C(NOCC1CC1)c1cc(Br)c(F)c(F)c1Nc1ccc(I)cc1Cl
7. COc1cc(Nc2nccc(N3CCC(NC(=O)c4cccc(C#N)c4)C3)n2)cc(OC)c1OC (centres unmarked)
8. O=C(Nc1ccc(Oc2ccc3nc(NC(=O)C4CC4)cn3n2)c(F)c1)c1cccn(-c2ccccc2)c1=O

0
0
7
0
20
0
0
0

Parameters: items (list). Returns: %Inh for each item.
1. CN(c1ccccc1CNc1nc(Nc2ccc3c(c2)CC(=O)N3)ncc1C(F)(F)F)S(C)(=O)=O
2. CN1CCN(CCNc2nc3cc(Oc4ccc(NC(=O)Nc5cc(C(F)(F)F)ccc5F)cc4)ccc3[nH]2)CC1.Cl.Cl
3. NC(=O)Nc1sc(-c2ccc(F)cc2)cc1C(N)=O

[0, 0, 0]

Parameters: items (list). Returns: %Inh for each item.
1. Cn1ccc2ncnc(Oc3ccc(NC(=O)Nc4cccc(C(F)(F)F)c4)c(F)c3)c21
2. COC(=O)Nc1nc2cc(Oc3ccc(NC(=O)Nc4cc(C(F)(F)F)ccc4Cl)cc3)ccc2[nH]1.Cl
3. OCCn1cc(-c2cnc3nnn(Cc4ccc5ncccc5c4)c3n2)cn1
4. COc1cc2ncn(-c3cc(OCC4CCCCC4)c(C(N)=O)s3)c2cc1OC
5. O=C(Nc1cccc(Oc2ccc3nccn3n2)c1)Nc1cccc(C(F)(F)F)c1
6. Cc1ccn2nc(-c3ccc(F)cc3)c(-c3ccncc3)c2c1.Cl
7. c1ccc(Oc2ccc(Nc3ccnc4ccc(-c5ccccn5)cc34)cc2)cc1
8. CCn1c(-c2nonc2N)nc2cncc(Br)c21

1. 20
2. 0
3. 0
4. 9
5. 0
6. 12
7. 0
8. 0

###

System: PRKCD
applied conditions: concentration: 1 μM,replicates: in singlicate; n = 1
observable: %Inh (%)
Give bare numbers, in %.

Some solved entries appear below for comparison.
{"columns": ["compound", "test target", "observable", "value observed"],
 "data": [
  ["CS(=O)c1ccc(-c2coc3ccc(-c4n[nH]c(=O)o4)cc23)cc1 (centres unmarked)", "PRKCD", "%Inh", 24],
  ["O=C(Nc1cccc(C(F)(F)F)c1)c1cccc(Oc2ccc3nccn3n2)c1", "PRKCD", "%Inh", 22],
  ["CN1CCN(CCCNc2nccc(-c3c(-c4ccc(F)cc4)nn4cc(C(N)=O)ccc34)n2)CC1", "PRKCD", "%Inh", 29],
  ["Cc1ccc(C(=O)Nc2ccc(Oc3ccc4nc(NC(=O)C5CC5)cn4c3)c(F)c2)c(=O)n1-c1ccccc1", "PRKCD", "%Inh", 0],
  ["CC(C(=O)NC1CCN(c2ccnc(Nc3ccc(F)cc3)n2)C1)c1ccc(Cl)cc1 (centres unmarked)", "PRKCD", "%Inh", 0],
  ["Cl.Cl.NC[C@H](CC1CCCCC1)NC(=O)c1ccc(-c2ccnc3[nH]ccc23)s1", "PRKCD", "%Inh", 100],
  ["OCCn1cc(-c2cnc3nnn(Cc4ccc5ncccc5c4)c3n2)cn1", "PRKCD", "%Inh", 0],
  ["CSc1nccc(-c2c(-c3ccc(F)cc3)ncn2CCCN2CCOCC2)n1.Cl", "PRKCD", "%Inh", 8],
  ["Cn1ccc2ncnc(Oc3ccc(NC(=O)Nc4cnn(C(C)(C)C)c4)c(Cl)c3)c21", "PRKCD", "%Inh", 27],
  ["CCN1CCN(CCCC(=O)Nc2n[nH]c3nc(-c4ccc(O)cc4)c(Br)cc23)CC1", "PRKCD", "%Inh", 64]
]}

Parameters: items (list). Returns: %Inh for each item.
1. CS(=O)(=O)Nc1ccc(-c2ccnc3[nH]ccc23)cc1
2. CCOC(=O)N1CCC(n2cnc(-c3ccc(F)cc3)c2-c2ccnc(N)n2)CC1
3. CN1CCN(CCNc2nc3cc(Oc4ccc(NC(=O)Nc5cc(C(F)(F)F)ccc5F)cc4)ccc3[nH]2)CC1.Cl.Cl
4. CC(C)S(=O)(=O)N1CCN(Cc2ccc3c(c2)nc(NC(=O)c2ccsc2)n3C[C@H](O)c2ccccc2)CC1
5. COc1cc2c(Nc3ccc(NC(=O)c4ccccc4)cc3)ncnc2cc1OCCCN1CCOCC1
6. Cl.c1ccc(Oc2ccc(Nc3ccnc4cc(-c5ccc(CN6CCNCC6)o5)ccc34)cc2)nc1
7. Cn1ccc2ncnc(Oc3ccc(NC(=O)Nc4cc(C(C)(C)C)on4)c(Cl)c3)c21

1. 42
2. 0
3. 9
4. 11
5. 6
6. 0
7. 21

###

Tested on: RSK1(Kin.Dom.1-N-terminal)
Construct: gene RPS6KA1
applied conditions: concentration: 1 μM,replicates: in singlicate; n = 1
observable: %Inh (%)
Give bare numbers, in %.

{"columns": ["compound", "value observed"],
 "data": [
  ["N#Cc1cccc(C(=O)NC2CCN(c3ccnc(Nc4ccc(F)cc4)n3)C2)c1 (stereo not shown) [GSK1379708]", 15],
  ["COc1cccc(C2=C(Nc3cccc(Cl)c3)C(=O)NC2=O)c1 [SB-341556]", 28],
  ["CC(=O)Nc1ccc(-c2cc3ncnc(SCC(=O)O)c3s2)cc1", 0],
  ["CCn1c(-c2nonc2N)nc2cncc(Br)c21 [SB-738004]", 0],
  ["CCCC(=O)Nc1n[nH]c2ncccc12 [SB-601436]", 0]
]}

Parameters: items (list). Returns: %Inh for each item.
1. CN1CCN(CCCNc2nccc(-c3c(-c4ccc(F)cc4)nn4cc(C(N)=O)ccc34)n2)CC1 [GW622475]
2. CCn1c(-c2nonc2N)nc2cncc(CNC3CCNCC3)c21.Cl [SB-747651]
3. O=C1NCCc2[nH]c(-c3ccncc3)cc21
4. Cc1ccc(CC(=O)N2CCc3cc(-c4cn(C)c5ncnc(N)c45)ccc32)cc1 [GSK2634758]
5. CN(c1ccc2c(c1)nc(NCc1ccc(F)cc1)n2C)c1ccnc(Nc2ccc(CS(C)(=O)=O)cc2)n1.Cl [GW813244]

1. 28
2. 21
3. 4
4. 9
5. 0

###

Test system: TNIK
applied conditions: concentration: 1 μM,replicates: in singlicate; n = 1
Assignment: determine reported %Inh for the given compounds.

Some solved entries appear below for comparison.
{"columns": ["compound", "value observed"],
 "data": [
  ["Cn1ccc2ncnc(Oc3ccc(NC(=O)Nc4ccnc(C(F)(F)F)c4)c(Cl)c3)c21", "0%"],
  ["COc1cccc(CNC(=O)NC2CCN(c3ccnc(Nc4cc(OC)c(OC)c(OC)c4)n3)C2)c1 (stereo not shown)", "0%"],
  ["Cn1cc(-c2cccc3c(N)c(C(N)=O)nnc23)cn1", "5%"]
]}

// next entry
Enter measured %Inh, system TNIK, for the compound shown: "O=C(Nc1cccc(Oc2ccc3nccn3n2)c1)Nc1cccc(C(F)(F)F)c1"
51%

###

Tested on: SRMS
applied conditions: concentration: 1 μM,replicates: in singlicate; n = 1
observable: %Inh

{"columns": ["compound", "test target", "observable", "value observed"],
 "data": [
  ["Cn1ccc2ncnc(Oc3ccc(NC(=O)Nc4cnn(C(C)(C)C)c4)c(Cl)c3)c21", "SRMS", "%Inh", "0%"],
  ["COc1cccc(CNC(=O)NC2CCN(c3ccnc(Nc4cc(OC)c(OC)c(OC)c4)n3)C2)c1 (stereo not drawn) [GSK1379765]", "SRMS", "%Inh", "0%"],
  ["CC(=O)c1c(-c2ccncc2)[nH]c(-c2ccncc2)c1C [GW493036]", "SRMS", "%Inh", "0%"],
  ["COc1cc(Nc2nccc(N3CCC(NC(=O)c4cccc(C#N)c4)C3)n2)cc(OC)c1OC (stereo not drawn) [GSK1379751]", "SRMS", "%Inh", "0%"]
]}

Parameters: items (list). Returns: %Inh for each item.
1. Cc1ccn2nc(-c3ccc(F)cc3)c(-c3ccncc3)c2c1.Cl [GW457859]
2. Cn1ccc2ncnc(Oc3ccc(NC(=O)Nc4cc(C(C)(C)C)on4)c(Cl)c3)c21
3. Cn1ccc2ncnc(Oc3ccc(NC(=O)Nc4cccc(C(F)(F)F)c4)c(Cl)c3)c21
4. COc1ccc(Nc2nccc(N3CCC(NC(=O)c4cccc(C#N)c4)C3)n2)cc1 (stereo not drawn) [GSK1379730]
5. FC(F)(F)c1cc(Br)cc(Nc2nccc(-c3cnn4ncccc34)n2)c1 [GW810578]
6. NC(=O)c1ccc(-c2cc3ncnc(SCC(=O)O)c3s2)cc1
7. O=c1[nH]cc(-c2ccc(O)cc2)c2sc(-c3ccncc3)cc12 [GSK1033723]
8. CCOC(=O)N1CCC(n2cnc(-c3ccc(F)cc3)c2-c2ccnc(N)n2)CC1 [SB-219952]

1. 0%
2. 0%
3. 0%
4. 0%
5. 6%
6. 0%
7. 0%
8. 0%

Parameters: items (list). Returns: %Inh for each item.
1. CN(c1cccc(CNc2nc(Nc3ccc4c(c3)CC(=O)N4)ncc2C(F)(F)F)c1)S(C)(=O)=O
2. CNC(=O)c1ccccc1Nc1nc(Nc2cccc(CS(C)(=O)=O)c2)ncc1C.O=CO [GSK1520489]

["0%", "95.1%"]

Parameters: items (list). Returns: %Inh for each item.
1. COc1cc2ncn(-c3cc(OCC4CCCCC4)c(C(N)=O)s3)c2cc1OC [GSK204559]
2. Cn1cc(-c2cccc3c(N)c(C(N)=O)nnc23)cn1

1: 0%; 2: 24%

Parameters: items (list). Returns: %Inh for each item.
1. CC(=O)Nc1nc2cnc(Nc3cc(NC(=O)c4cccc(CC(C)(C)C#N)c4)ccc3C)nc2s1
2. COC(=O)c1cccc(NC(=O)NC2CCN(c3ccnc(NCc4ccc(F)cc4)n3)CC2)c1 [GSK1379860]

["0%", "0%"]
